- System tested: Sigma non-opioid intracellular receptor 1 (Homo sapiens)
- Sequence (Q99720 whole entry): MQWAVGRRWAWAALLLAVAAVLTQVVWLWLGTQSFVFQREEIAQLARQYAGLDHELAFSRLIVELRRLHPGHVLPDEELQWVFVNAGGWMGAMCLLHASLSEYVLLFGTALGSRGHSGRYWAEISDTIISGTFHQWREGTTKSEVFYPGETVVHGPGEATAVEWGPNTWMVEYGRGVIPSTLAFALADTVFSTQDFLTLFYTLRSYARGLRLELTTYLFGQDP
- Test method notes: Displacement of [3H]-(+)-pentazocine from sigma-1 receptor in human RPMI8226 cell membranes after 120 mins by scintillation counting analysis
Measured metric: Ki (µM)

Compound structure string	Unit text	Ki
OCC[C@H]1CN(CC2CCCCC2)CCN1Cc1cccc2ccccc12	µM	0.029
CCCCN1CCN(Cc2ccc(OC)cc2)[C@@H](CCO)C1	µM	0.491

I = OCC[C@H]1CN(CC2CCCCC2)CCN1Cc1ccccc1
II = OCC[C@H]1CN(CC2CCCCC2)CCN1Cc1ccc2ccccc2c1
Given the two records I and II , choose the one whose Ki value is lower. Your answer should be the label of the entry you select. II

All values here come from ChEMBL document CHEMBL3232783.
